Origin of values: patent US6977262B2

observedProperty: melting point (°C)
Numeric only. Scale: °C

Completed entries (count: 3):
# molecule, measurementUnit, observed
measured = [
    ("CCCC1=C(C(=O)OCC)C(c2ccccc2Br)c2c[nH]nc2N1 (stereo not drawn)", "°C", 223),
    ("N#CC1=C(c2ccccc2)Nc2n[nH]cc2C1c1cccc(F)c1F (stereo not drawn)", "°C", 165),
    ("CCCC1=C(C(=O)OCC)C(c2sccc2C)c2c[nH]nc2N1 (stereo not drawn)", "°C", 125),
]

Req: Quick check: melting point of CCCC1=C(C(=O)OCC)C(c2ccccc2CC)c2cn[nH]c2N1 (stereo not drawn) ?
Resp: 186

Req: Can you look up the measured melting point of N#CC1=C(C2CCCC2)Nc2n[nH]cc2C1c1cccc2nonc12 (stereo not drawn) for me?
Resp: 193

Req: Returns the measured melting point for the input molecule. Input: COc1ccccc1C1=C(C#N)C(c2cccc3nonc23)c2c[nH]nc2N1 (stereo not drawn)
Resp: 180

Req: Reported melting point for CCCC1=C(C#N)C(c2ccccc2Cl)c2c(n[nH]c2-c2ccco2)N1 (stereo not drawn) : what is it?
Resp: 253

----------
observedProperty: melting point

# molecule, observed
measured = [
    ("C=CCCC(=O)n1ncc2c1NC(CCC)=C(C#N)C2c1ccccc1Cl (centres unmarked)", "140 °C"),
    ("CCOC(=O)C1=C(C(F)(F)F)Nc2n[nH]cc2C1c1ccccc1F (centres unmarked)", "119 to 120 °C"),
    ("CCCC1=C(C(=O)OCC)C(c2cccs2)c2c[nH]nc2N1.O=C(O)/C=C\\C(=O)O (centres unmarked)", "129 to 131 °C"),
]

Req: Endpoint output: melting point of CCCC1=C(C#N)C(c2cccc([N+](=O)[O-])c2Br)c2c[nH]nc2N1 (centres unmarked) . Value?
Resp: 250 to 255 °C (dec.)

Req: Fill in the blank: the reported melting point of CCCC1=C([N+](=O)[O-])C(c2cccc3ccccc23)c2c[nH]nc2N1 (centres unmarked) is ____.
Resp: 226 °C

----------
Where a name gives a salt, the structure may show the parent alone.
Parameter: melting point. Scope: all listed entries.

# compound, observedProperty, observed
rows = [
    ("CCCC1=C(C#N)C(c2cccc(N3CCOCC3)c2)c2c[nH]nc2N1 (stereo not shown) [Example 364]", "melting point", "196 to 200 °C"),
    ("CCCC1=C(C#N)C(c2ccccc2Cl)c2cnn(C(=O)OC(C)(C)C)c2N1 (stereo not shown) [Example 281]", "melting point", "98 to 102 °C"),
    ("CC(C)C1=C(C#N)C(c2ccccc2[N+](=O)[O-])c2c[nH]nc2N1 (stereo not shown) [Example 262]", "melting point", "224 °C"),
]

Now for another entry.
Req: Fill in: melting point of CN1CCCC(C2=C(C#N)C(c3cccc(C#N)c3Br)c3c[nH]nc3N2)C1 (stereo not shown) (as salt: trifluoroacetate) [Example 1041] is ___
Resp: 174 °C

----------
Measured melting point of individual entries
Please give a number only; it is taken to be in °C.

Look over these answered cases.
# molecule, observedProperty, observed
measured = [
    ("N#CC1=C(c2ccco2)Nc2n[nH]cc2C1c1cccc2nonc12 (stereo not drawn) [Example 173]", "melting point", 237),
    ("CCCC1=C(C(=O)OCC)C(c2ccccc2Cl)c2cnn(C(=O)OCc3ccccc3)c2N1 (stereo not drawn)", "melting point", 80),
    ("N#CC1=C(C2CCC2)Nc2n[nH]cc2C1c1cccc(C#N)c1Br (stereo not drawn)", "melting point", 278),
]

Query molecule follows.
Req: What does the record list as melting point for CCCC1=C([N+](=O)[O-])C(c2cccc(Cl)c2Cl)c2c[nH]nc2N1 (stereo not drawn) ?
Resp: 239

----------
// values below are reported melting point
Use °C as the unit, but write only the number.

Record excerpt, results attached:
# molecule, measurementUnit, melting point
records = [
    ("CSc1ccccc1C1C(C#N)=C(c2cccs2)Nc2n[nH]cc21 (centres unmarked)", "°C", 222),
    ("CC(C)(C)OC(=O)N1CCCC(C2=C(C#N)C(c3cccc4nonc34)c3c[nH]nc3N2)C1 (centres unmarked)", "°C", 229),
    ("N#CC1=C(c2ccccc2)Nc2n[nH]cc2C1c1ccccc1C#N (centres unmarked)", "°C", 148),
    ("CCCC1=C(C#N)C(c2ccccc2Cl)c2c(n[nH]c2CC)N1 (centres unmarked)", "°C", 269),
    ("CCC1=C([N+](=O)[O-])C(c2cccc(Cl)c2Cl)c2c[nH]nc2N1 (centres unmarked)", "°C", 250),
]

Pending molecule:
Req: Which melting point is listed for CCCC1=C(C(=O)OCC)C(c2cccc3nonc23)c2c[nH]nc2N1 (single isomer, unassigned; (-)) [Example 117] ?
Resp: 160

----------
The following compounds are listed with their measured melting point values.

# compound, melting point
measured = [
    ("CC1=C([N+](=O)[O-])C(c2cccc(Cl)c2Cl)c2c[nH]nc2N1 (stereo not drawn)", "> 270 °C"),
    ("N#CC1=C(c2ccccc2)Nc2n[nH]cc2C1c1cccc(C#N)c1Br (stereo not drawn)", "> 270 °C"),
    ("CCCC1=C(C(=O)OCC)C(c2cc(OC)ccc2OC)c2c[nH]nc2N1 (stereo not drawn)", "169 to 170 °C"),
    ("CC(C)(C)OC(=O)NCCC1=C(C#N)C(c2cccc3nonc23)c2c[nH]nc2N1 (stereo not drawn)", "231 °C"),
    ("CC(C)C1=C(C#N)C(c2ccccc2Cl)c2c[nH]nc2N1 (stereo not drawn)", "> 250 °C"),
]

Req: Look up melting point for this compound: N#CC1=C(CO)Nc2n[nH]cc2C1c1cccc2nonc12 (stereo not drawn)
Resp: 215 to 220 °C (dec.)

Req: melting point lookup needed for N#CC1=C(C2CCNCC2)Nc2n[nH]cc2C1c1ccccc1Cl (stereo not drawn) , thanks.
Resp: 221 °C

Req: # input compound: CC(=O)N1CC=C(C2=C(C#N)C(c3cccc4nonc34)c3c[nH]nc3N2)CC1 (stereo not drawn) ; wanted: its melting point
Resp: 237 °C

Req: Item COc1ccc(C2=C(C#N)C(c3cccc4nonc34)c3c[nH]nc3N2)cc1 (stereo not drawn) has what recorded melting point?
Resp: 244 °C

Req: // query melting point value for entry CCCC1=C(C#N)C(c2cccc(C)n2)c2c[nH]nc2N1 (stereo not drawn)
Resp: 177 to 181 °C

Req: What measured melting point goes with CCOC(=O)/C=C/C1=C(C#N)C(c2ccccc2Cl)c2c[nH]nc2N1 (stereo not drawn) ?
Resp: 240 to 243 °C (dec.)

Req: What melting point value was documented for this compound, N#CC1=C(C2CCNCC2)Nc2n[nH]cc2C1c1cccc2nonc12 (stereo not drawn) ?
Resp: 216 °C

Req: Entry CC(C)C1=C(C#N)C(c2cccc3nonc23)c2c[nH]nc2N1 (stereo not drawn) : reported melting point = ?
Resp: 222 to 223 °C (dec.)

Req: Record request: melting point value, item CCCC1=C(C(=O)OCC)C(c2ccc(Cl)s2)c2c[nH]nc2N1.O=C(O)/C=C\C(=O)O (stereo not drawn)
Resp: 129 to 131 °C

Req: melting point for CCCC1=C(C(=O)OCC)C(c2ccccc2C)c2c[nH]nc2N1 (stereo not drawn) ?
Resp: 178 °C

Req: // returns reported melting point for input CCCOC(=O)n1ncc2c1NC(CCC)=C(C(=O)OCC)C2c1ccccc1Cl (stereo not drawn)
Resp: 66 to 68 °C

Req: Bench note: what melting point did Cl.Cl.Cl.N#CC1=C(CN2CCN(c3ccccc3)CC2)Nc2n[nH]cc2C1c1ccccc1Cl (stereo not drawn) show?
Resp: 217 to 220 °C (dec.)

Req: Look up melting point for this compound: N#CC1=C(C2CC2)Nc2n[nH]cc2C1c1cccc2nocc12 (stereo not drawn)
Resp: 248 °C

----------
observedProperty: melting point

# compound, observedProperty, observed
data = [
    ("CCOC(=O)C1=C(C(F)(F)F)Nc2n[nH]cc2C1c1ccc(Cl)cc1 (stereo not drawn)", "melting point", "176 to 178 °C"),
]

Req: Given CCN1CCC(C2=C(C#N)C(c3cccc4nonc34)c3c[nH]nc3N2)CC1 (stereo not drawn) , state its recorded melting point.
Resp: 231 °C

Req: Can you look up the measured melting point of CCCC1=C(C(=O)OCC)C(C)(c2ccccc2)c2c[nH]nc2N1 (stereo not drawn) for me?
Resp: 207 °C

Req: Entry under review: N#CC1=C(c2cc3ccccc3o2)Nc2n[nH]cc2C1c1cccc2nonc12 (stereo not drawn) . Reported melting point?
Resp: > 270 °C

Req: Bench note: what melting point did CCCCc1[nH]nc2c1C(c1ccccc1Cl)C(C#N)=C(CCC)N2 (stereo not drawn) show?
Resp: 212 °C

Req: I'd like to know its melting point. The compound in question is CCCC1=C(C(=O)OCC)C(c2ccccc2O)c2c[nH]nc2N1 (stereo not drawn)
Resp: 177 °C

Req: Bench note: what melting point did CCCN1CCC(C2=C(C#N)C(c3cccc4nonc34)c3c[nH]nc3N2)CC1 (stereo not drawn) show?
Resp: 246 °C

Req: So what's the measured melting point for this one? CCCC1=C(C(=O)OCC)C(c2cccc(Cl)c2)c2c[nH]nc2N1 (stereo not drawn)
Resp: 140 to 143 °C
